Known Particle size d90 of a selection of molecules
Experiment: Particle size by laser diffraction (Mastersizer 2000, Scirocco 2000 dry dispersion)
Format: physicochemical
Settings: processed CIPRO particles, Table 3; Hydrochloride Monohydrate

MOLECULE	UNITS	Particle size d90
Cl.O.O=C(O)c1cn(C2CC2)c2cc(N3CCNCC3)c(F)cc2c1=O [CIPRO (w/o US, Grinder designed at MIT), Ciprofloxacin Hydrochloride Monohydrate]	μm	169.73
Cl.O.O=C(O)c1cn(C2CC2)c2cc(N3CCNCC3)c(F)cc2c1=O [CIPRO (w/o US, Krups Grinder), Ciprofloxacin Hydrochloride Monohydrate]	μm	33.26
Cl.O.O=C(O)c1cn(C2CC2)c2cc(N3CCNCC3)c(F)cc2c1=O [CIPRO (US & Krups Grinder), Ciprofloxacin Hydrochloride Monohydrate]	μm	65.36
Cl.O.O=C(O)c1cn(C2CC2)c2cc(N3CCNCC3)c(F)cc2c1=O [CIPRO (US & Morter-Pastle), Ciprofloxacin Hydrochloride Monohydrate]	μm	24.02
